Catalogue of compounds with associated phase inversion temperature Tgel-sol
# Assay Notes: Phase inversion temperature (Tgel-sol) test of hydrogels
# Assay type: physicochemical
# Experimental Parameters: heated 2° C./min until hydrogel began to flow
Non-standard residues stand in square brackets, D forms with d. Residues, ends and D or L forms follow the SMILES beside them. ξ: configuration not given here. *: point of attachment. Phenylacetyl(2,3,4,5,6-F5) = O=C(Cc1c(F)c(F)c(F)c(F)c1F)*; Phenylacetyl(4-F) = O=C(Cc1ccc(F)cc1)*; Hydrocinnamoyl = O=C(CCc1ccccc1)*; Ile(3ξ) = CCC(C)[C@H](N)C(=O)O; PhAc = O=C(Cc1ccccc1)*; Bz = O=C(c1ccccc1)*

[
  {
    "Compound": "O=C(Cc1c(F)c(F)c(F)c(F)c1F)N[C@@H](Cc1ccccc1)C(=O)O [hydrogel (A), PFB-Phe]",
    "Relation Qualifier": "=",
    "phase inversion temperature Tgel-sol / °C": 56
  },
  {
    "Compound": "CCC(C)[C@H](NC(=O)c1ccccc1)C(=O)N[C@@H](CCCCN)C(=O)N[C@H](C(=O)N[C@@H](C)C(=O)N[C@H](C(=O)O)C(C)C)C(C)C (stereo partly drawn) [hydrogel (O), Benzoic Acid-Ile-Lys-Val-Ala-Val] (Bz-[Ile(3ξ)]KVAV-OH)",
    "Relation Qualifier": "=",
    "phase inversion temperature Tgel-sol / °C": 62
  },
  {
    "Compound": "O=C(Cc1ccc(F)cc1)N[C@@H](Cc1ccccc1)C(=O)N[C@@H](Cc1ccccc1)C(=O)O [hydrogel (K), 4-Fluorobenzyl-Phe-Phe]",
    "Relation Qualifier": "=",
    "phase inversion temperature Tgel-sol / °C": 46
  },
  {
    "Compound": "CCC(C)[C@H](NC(=O)Cc1ccccc1)C(=O)N[C@@H](CCCCN)C(=O)N[C@H](C(=O)N[C@@H](C)C(=O)N[C@H](C(=O)O)C(C)C)C(C)C (stereo partly drawn) [hydrogel (P), Phenylacetic Acid-Ile-Lys-Val-Ala-Val] (PhAc-[Ile(3ξ)]KVAV-OH)",
    "Relation Qualifier": "=",
    "phase inversion temperature Tgel-sol / °C": 65
  },
  {
    "Compound": "O=C(Cc1c(F)c(F)c(F)c(F)c1F)N[C@@H](Cc1ccccc1)C(=O)N[C@@H](Cc1ccccc1)C(=O)O [hydrogel (D), PFB-Phe-Phe]",
    "Relation Qualifier": "=",
    "phase inversion temperature Tgel-sol / °C": 45
  },
  {
    "Compound": "CC(C)[C@H](NC(=O)[C@H](Cc1ccccc1)NC(=O)Cc1c(F)c(F)c(F)c(F)c1F)C(=O)O [hydrogel (F), PFB-Phe-Val]",
    "Relation Qualifier": "=",
    "phase inversion temperature Tgel-sol / °C": 46
  },
  {
    "Compound": "CC(C)C[C@@H](NC(=O)Cc1c(F)c(F)c(F)c(F)c1F)C(=O)N[C@H](Cc1ccccc1)C(=O)O [hydrogel (J), PFB-D-L-D-F]",
    "Relation Qualifier": "=",
    "phase inversion temperature Tgel-sol / °C": 69
  },
  {
    "Compound": "CCC(C)[C@H](NC(=O)CCc1ccccc1)C(=O)N[C@@H](CCCCN)C(=O)N[C@H](C(=O)N[C@@H](C)C(=O)N[C@H](C(=O)O)C(C)C)C(C)C (stereo partly drawn) [hydrogel (Q)] (Hydrocinnamoyl-[Ile(3ξ)]KVAV-OH)",
    "Relation Qualifier": ">",
    "phase inversion temperature Tgel-sol / °C": 90
  },
  {
    "Compound": "O=C(Cc1c(F)c(F)c(F)c(F)c1F)N[C@@H](Cc1ccc(O)cc1)C(=O)N[C@@H](Cc1ccccc1)C(=O)O [hydrogel (C), PFB-Tyr-Phe]",
    "Relation Qualifier": "=",
    "phase inversion temperature Tgel-sol / °C": 43
  },
  {
    "Compound": "C[C@H](NC(=O)[C@H](Cc1ccccc1)NC(=O)Cc1c(F)c(F)c(F)c(F)c1F)C(=O)O [hydrogel (E), PFB-Phe-Ala]",
    "Relation Qualifier": "=",
    "phase inversion temperature Tgel-sol / °C": 48
  },
  {
    "Compound": "CCC(C)[C@H](NC(=O)Cc1c(F)c(F)c(F)c(F)c1F)C(=O)N[C@@H](Cc1ccccc1)C(=O)O (stereo partly drawn) [hydrogel (H), PFB-Ile-Phe]",
    "Relation Qualifier": "=",
    "phase inversion temperature Tgel-sol / °C": 71
  },
  {
    "Compound": "CC(C)C[C@H](NC(=O)Cc1c(F)c(F)c(F)c(F)c1F)C(=O)N[C@@H](Cc1ccccc1)C(=O)O [hydrogel (I), PFB-Leu-Phe]",
    "Relation Qualifier": "=",
    "phase inversion temperature Tgel-sol / °C": 55
  },
  {
    "Compound": "CCC(C)[C@H](NC(=O)Cc1c(F)c(F)c(F)c(F)c1F)C(=O)N[C@@H](CCCCN)C(=O)N[C@H](C(=O)N[C@@H](C)C(=O)N[C@H](C(=O)O)C(C)C)C(C)C (stereo partly drawn) [hydrogel (M), PFB-Ile-Lys-Val-Ala-Val] ({Phenylacetyl(2,3,4,5,6-F5)}-[Ile(3ξ)]KVAV-OH)",
    "Relation Qualifier": "=",
    "phase inversion temperature Tgel-sol / °C": 42
  },
  {
    "Compound": "CCC(C)[C@H](NC(=O)[C@H](Cc1ccccc1)NC(=O)Cc1c(F)c(F)c(F)c(F)c1F)C(=O)N[C@@H](CCCCN)C(=O)N[C@H](C(=O)N[C@@H](C)C(=O)N[C@H](C(=O)O)C(C)C)C(C)C (stereo partly drawn) [hydrogel (R), PFB-Phe-Ile-Lys-Val-Ala-Val] ({Phenylacetyl(2,3,4,5,6-F5)}-F[Ile(3ξ)]KVAV-OH)",
    "Relation Qualifier": "=",
    "phase inversion temperature Tgel-sol / °C": 40
  },
  {
    "Compound": "CCC(C)[C@H](NC(=O)Cc1ccc(F)cc1)C(=O)N[C@@H](CCCCN)C(=O)N[C@H](C(=O)N[C@@H](C)C(=O)N[C@H](C(=O)O)C(C)C)C(C)C (stereo partly drawn) [hydrogel (N)] ({Phenylacetyl(4-F)}-[Ile(3ξ)]KVAV-OH)",
    "Relation Qualifier": "=",
    "phase inversion temperature Tgel-sol / °C": 66
  },
  {
    "Compound": "O=C(O)CNC(=O)[C@H](Cc1ccccc1)NC(=O)Cc1c(F)c(F)c(F)c(F)c1F [hydrogel (B), PFB-Phe-Gly]",
    "Relation Qualifier": "=",
    "phase inversion temperature Tgel-sol / °C": 48
  },
  {
    "Compound": "O=C(Cc1c(F)c(F)c(F)c(F)c1F)NCC(=O)N[C@@H](Cc1ccccc1)C(=O)N[C@@H](Cc1ccccc1)C(=O)O [hydrogel (L), PFB-Gly-Phe-Phe]",
    "Relation Qualifier": "=",
    "phase inversion temperature Tgel-sol / °C": 38
  },
  {
    "Compound": "CC(C)[C@H](NC(=O)Cc1c(F)c(F)c(F)c(F)c1F)C(=O)N[C@@H](Cc1ccccc1)C(=O)O [hydrogel (G), PFB-Val-Phe]",
    "Relation Qualifier": "=",
    "phase inversion temperature Tgel-sol / °C": 72
  }
]
